All figures here come from ChEMBL document CHEMBL1154763.

Measured pIC50 of individual entries
- System: Trypanosoma brucei rhodesiense
- TEST_DESCRIPTION: Antitrypanosomal activity against bloodstream Trypanosoma brucei rhodesiense STIB 900 after 70 hrs by alamar blue assay
- Type: functional, organism-based
- CONDITION_SET: STIB 900, 70 h
API: returns pIC50 as number; meaning -log10 of concentration in mol/L.

{"COMPOUND": "Nc1nc(N)nc(Nc2ccc([As]3SCC(CO)S3)cc2)n1 (stereo not drawn)", "ASSAY_SYSTEM": "Trypanosoma brucei rhodesiense", "pIC50": 8.10}

// pIC50 lookup, compound = `COc1cccc(COc2ccc3c(c2)C(C)=CC(C)(C)N3)c1` , result: 4.96

// sample `CC1=CC(C)(C)N(Cc2ccc(Cl)cc2)c2ccc(O)cc21` , its pIC50 was 7.21

Record `CC1=CC(C)(C)N(Cc2ccccc2)c2ccc(OC(=O)C(C)(C)C)cc21` . Reported pIC50: 7.55

# pIC50 of `COc1cc(OC)cc(C(=O)Oc2ccc3ncccc3c2)c1` = 4.05

Briefly, pIC50 measured for `COc1cccc(COc2ccc3c(c2)C(C)=CC(C)(C)N3Cc2cccc(OC)c2)c1` : 4.20

// `CC1=CC(C)(C)N(Cc2ccccn2)c2ccc(O)cc21` : pIC50 value = 5.96

Sure, the documented pIC50 for `COc1cc(COc2ccc3c(c2)C(C)=CC(C)(C)N3)cc(OC)c1` is 4.89

Measured pIC50, `CC1=CC(C)(C)N(Cc2ccccc2)c2ccc(O)cc21` : 8.15

Lab note: `CC(=O)Oc1ccc2c(c1)N(Cc1ccccc1)C(C)(C)C=C2C` gave pIC50 of 5.36

Kindly note the recorded pIC50 for `CC1=CC(C)(C)N(Cc2ccc(C(F)(F)F)cc2)c2ccc(OCc3ccc(C(F)(F)F)cc3)cc21` , which is 4.07

Entry `CC1=CC(C)(C)N(Cc2ccc(C)cc2)c2ccc(O)cc21` — recorded pIC50 = 7.24

pIC50 in this record for `COc1ccc(CN2c3ccc(OC(C)=O)cc3C(C)=CC2(C)C)cc1` : 7.32

Notebook: `COc1cc(OC)cc(C(=O)Oc2ccc3c(c2)C(C)=CC(C)(C)N3Cc2ccc(C)cc2)c1` , pIC50 read as 7.48

Input `CC(=O)Oc1ccc2c(c1)C(C)=CC(C)(C)N2C(C)=O` . Output pIC50: 5.28

GET /value?item= `CC(=O)Oc1ccc2c(c1)C(C)=CC(C)(C)N2Cc1ccc(F)cc1` &field=pIC50 returns 7.39

GET /value?item= `CC1=CC(C)(C)N(Cc2ccccc2)c2ccc(OC(=O)Cc3ccccc3)cc21` &field=pIC50 returns 7.82

For `CC1(C)C=Cc2cc(O)ccc2N1Cc1ccccc1` the compound record lists pIC50 as 6.89

Documented pIC50 of `CC(=O)Oc1ccc2c(c1)C(C)=CC(C)(C)N2Cc1ccccc1` : 7.85

Per the record, `CC1=CC(C)(C)Nc2ccc(OCc3ccc(C(F)(F)F)cc3)cc21` has pIC50 of 5.35

Recorded pIC50 (compound `CC1=CC(C)(C)Nc2ccc(OCc3ccccc3)cc21` ): 5.39

Field pIC50 (entry `COc1cc(CN2c3ccc(OC(C)=O)cc3C(C)=CC2(C)C)cc(OC)c1` ) reads 7.00

Consider `COc1cccc(CN2c3ccc(OC(C)=O)cc3C(C)=CC2(C)C)c1` . Its measured pIC50 is 6.49
